This collection of values is drawn from ChEMBL document CHEMBL3853300.

- Species: Mus musculus
- experiment-notes: Cytotoxicity against Balb/c mouse T cells assessed as decrease in cell viability at 100 uM after 48 hrs by MTT assay
- Format: toxicity, cell-based
value-kind: Activity

# smiles-repr, value-kind, value-reported
data = [
    ("COc1ccc(-n2cc(COC(=O)[C@H](C)[C@@H]3CCc4c(C)cc(OC(C)=O)c(C)c4C3)nn2)cc1", "Activity", "Toxic"),
    ("CC(=O)Oc1cc(C)c2c(c1C)C[C@H]([C@@H](C)C(=O)OCc1cn(-c3ccc(O)cc3)nn1)CC2", "Activity", "Toxic"),
    ("CC(=O)Oc1cc(C)c2c(c1C)C[C@H]([C@@H](C)C(=O)OCc1cn(Cc3ccccc3)nn1)CC2", "Activity", "Toxic"),
    ("CC(=O)Oc1cc(C)c2c(c1C)C[C@H]([C@@H](C)C(=O)OCc1cn(-c3cccc(C#N)c3)nn1)CC2", "Activity", "Toxic"),
    ("C#CCOC(=O)[C@H](C)[C@@H]1CCc2c(C)cc(OC(C)=O)c(C)c2C1", "Activity", "Non-Toxic"),
    ("CC(=O)Oc1cc(C)c2c(c1C)C[C@H]([C@@H](C)C(=O)OCc1cn(-c3ccccc3Cl)nn1)CC2", "Activity", "Toxic"),
    ("CC(=O)Oc1cc(C)c2c(c1C)C[C@H]([C@@H](C)C(=O)OCc1cn(-c3ccc(C#N)cc3)nn1)CC2", "Activity", "Toxic"),
    ("CC(=O)Oc1cc(C)c2c(c1C)C[C@H]([C@@H](C)C(=O)OCc1cn(-c3cc(I)ccc3C)nn1)CC2", "Activity", "Toxic"),
    ("CC(=O)Oc1cc(C)c2c(c1C)C[C@H]([C@@H](C)C(=O)OCc1cn(-c3ccc(C(=O)c4ccccc4)cc3)nn1)CC2", "Activity", "Toxic"),
    ("CC(=O)Oc1cc(C)c2c(c1C)C[C@H]([C@@H](C)C(=O)OCc1cn(-c3ccc(Cl)nc3)nn1)CC2", "Activity", "Non-Toxic"),
    ("CC(=O)Oc1cc(C)c2c(c1C)C[C@H]([C@@H](C)C(=O)OCc1cn(-c3ccc(O)cc3C)nn1)CC2", "Activity", "Toxic"),
    ("CC(=O)Oc1cc(C)c2c(c1C)C[C@H]([C@@H](C)C(=O)OCc1cn(-c3cccnc3Cl)nn1)CC2", "Activity", "Non-Toxic"),
    ("CC1=C2[C@H]3OC(=O)[C@@H](C)[C@@H]3CC[C@@]2(C)C=CC1=O", "Activity", "Non-Toxic"),
    ("CC(=O)Oc1cc(C)c2c(c1C)C[C@H]([C@@H](C)C(=O)O)CC2", "Activity", "Non-Toxic"),
    ("CC(=O)Nc1ccc(-n2cc(COC(=O)[C@H](C)[C@@H]3CCc4c(C)cc(OC(C)=O)c(C)c4C3)nn2)cc1", "Activity", "Toxic"),
    ("CCCCCn1cc(COC(=O)[C@H](C)[C@@H]2CCc3c(C)cc(OC(C)=O)c(C)c3C2)nn1", "Activity", "Toxic"),
]
